B1: HDV Ribozyme (parent)
chain: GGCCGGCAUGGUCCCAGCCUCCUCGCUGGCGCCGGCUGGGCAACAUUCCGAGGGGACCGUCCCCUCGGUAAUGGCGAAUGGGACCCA

variants of: B1; experiment: self-cleavage, relative activity (ratio to wild type); higher = more cleavage; co-transcriptional
Short version: self-cleavage at least 0.2 is criterion met, less is criterion not met.

- variant.string: "G31C G80A"
  category.label: "criterion not met"
- variant.string: "C21G C86G"
  category.label: "criterion not met"
- variant.string: "C19G C58A"
  category.label: "criterion not met"
- variant.string: "C18G A70U"
  category.label: "criterion not met"
- variant.string: "C64U C75A"
  category.label: "criterion met"
- variant.string: "C49A G59U"
  category.label: "criterion met"
- variant.string: "G6C U37G"
  category.label: "criterion not met"
- variant.string: "G52A G80U"
  category.label: "criterion met"

Reported self-cleavage reaches at least 0.2 for A43C C48G ? criterion met

Reported self-cleavage reaches at least 0.2 for C18G G76U ? criterion met

Reported self-cleavage reaches at least 0.2 for A71U G81U ? criterion not met

Reported self-cleavage reaches at least 0.2 for U37G A70G ? criterion not met
